test.system: T1, human NGF-Fc protein (human, UniProt P01138 122-241, limits assumed)
T1 construct: not shown: human IgG1 Fc or IgG4 Fc
T1 sequence (P01138 122-241 limits assumed): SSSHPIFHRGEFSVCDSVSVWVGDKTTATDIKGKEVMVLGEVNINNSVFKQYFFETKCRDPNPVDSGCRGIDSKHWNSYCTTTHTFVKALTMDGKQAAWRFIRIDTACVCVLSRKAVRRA
procedure.text: BLI (Octet Red), human NGF-Fc captured on anti-human Fc sensors, Fab in solution
Experimental: FortéBio BioLayer Interferometry (BLI) technology was chosen as the method for affinity determination by using Octet Red system. NGF is a homodimer protein in its nature form. […] After purification, the Fab concentration was determined by OD280 according to the extinction coefficient calculated based on its sequence. […] The kinetic data were analyzed using program Data Analysis HT 10.0 according to the manual. […]
Kindly supply the reported koff values for the records listed here.
Number plus unit, in that order.

Bench note: what koff did Ab16 Fab (Fab, V domains shown) VH: EVQLVQSGAEVKKPGATVKISCKVSGYSFITYWISWVQQAPGKGLEWMGAIDPSDSDARYSPSFQGRVTITADTSTDTAYMELSSLRSEDTAVYYCAKSDPGYSGYSLLYGFDSWGQGTLVTVSS VL: DVVMTQSPLSLPVTLGQPASISCRSSQSLVQRNGNTYLSWFQQRPGQPPRLLIYQVSNRYSGVPDRFSGSGSGTDFTLKISRVEAEDVGVYYCGQGAHLPLTFGQGTKVEIK show?
7.11e-05 s⁻¹

Cool, now Ab61 Fab (Fab, V domains shown) VH: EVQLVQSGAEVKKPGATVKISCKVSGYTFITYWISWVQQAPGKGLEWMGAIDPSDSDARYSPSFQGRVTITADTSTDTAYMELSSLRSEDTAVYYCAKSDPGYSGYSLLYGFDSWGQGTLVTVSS VL: DVVMTQSPLSLPVTLGQPASISCRSSQSLVQRNANTYLSWYQQRPGQSPRLLIYQVSNRYSGVPDRFSGSGSGTDFTLKISRVEAEDVGVYYCGQGAHLPLTFGQGTKVEIK
5.13e-05 s⁻¹

Cool, now Ab54 Fab (Fab, V domains shown) VH: EVQLVQSGAEVKKPGESLKISCKISGYSFITYWISWVRQMPGKGLEWMGAIDPSDSDARYSPSFQGQVTISADKSISTAYLQWSSLKASDTAMYYCAKSDPGYSGYSLLYGFDSWGQGTLVTVSS VL: DVVMTQSPLSLPVTLGQPASISCRSSQSLVQRNGNTYLSWYQQRPGQSPRLLIYQVSNRYSGVPDRFSGSGSGTDFTLKISRVEAEDVGVYYCGQGAHLPLTFGQGTKVEIK
4.43e-05 s⁻¹

Cool, now Ab37 Fab (Fab, V domains shown) VH: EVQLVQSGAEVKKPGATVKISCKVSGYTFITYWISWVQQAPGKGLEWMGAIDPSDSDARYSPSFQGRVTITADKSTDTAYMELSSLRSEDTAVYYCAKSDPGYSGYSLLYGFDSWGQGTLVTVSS VL: DIVMTQSPLSLPVTLGQPASISCRSSQSLVQRNGNTYLSWFQQRPGQSPRLLIYQVSNRYSGVPDRFSGSGSGTDFTLKISRVEAEDVGVYYCGQGAHLPLTFGQGTKVEIK
5.27e-05 s⁻¹

Cool, now Ab36 Fab (Fab, V domains shown) VH: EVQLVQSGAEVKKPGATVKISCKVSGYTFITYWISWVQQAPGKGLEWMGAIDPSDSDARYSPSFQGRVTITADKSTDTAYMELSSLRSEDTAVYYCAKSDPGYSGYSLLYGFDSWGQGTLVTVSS VL: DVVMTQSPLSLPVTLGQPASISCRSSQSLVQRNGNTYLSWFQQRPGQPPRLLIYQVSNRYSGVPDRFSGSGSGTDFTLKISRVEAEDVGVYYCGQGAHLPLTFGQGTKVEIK
7.35e-05 s⁻¹

Cool, now Ab46 Fab (Fab, V domains shown) VH: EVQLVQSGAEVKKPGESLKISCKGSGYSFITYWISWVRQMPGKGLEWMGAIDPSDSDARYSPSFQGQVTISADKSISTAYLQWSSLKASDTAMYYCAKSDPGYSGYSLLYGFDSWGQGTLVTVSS VL: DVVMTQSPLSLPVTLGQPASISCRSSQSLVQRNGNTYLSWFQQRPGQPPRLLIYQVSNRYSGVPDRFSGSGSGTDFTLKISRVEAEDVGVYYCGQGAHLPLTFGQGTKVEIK
0.000107 s⁻¹

Cool, now Ab6 Fab (Fab, V domains shown) VH: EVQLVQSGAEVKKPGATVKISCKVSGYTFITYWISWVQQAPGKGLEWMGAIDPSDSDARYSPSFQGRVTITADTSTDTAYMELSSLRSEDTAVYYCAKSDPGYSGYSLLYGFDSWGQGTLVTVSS VL: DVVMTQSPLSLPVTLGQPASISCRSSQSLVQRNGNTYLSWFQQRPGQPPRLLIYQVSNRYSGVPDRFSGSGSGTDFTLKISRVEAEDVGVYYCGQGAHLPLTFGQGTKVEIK
6.33e-05 s⁻¹

Cool, now Ab47 Fab (Fab, V domains shown) VH: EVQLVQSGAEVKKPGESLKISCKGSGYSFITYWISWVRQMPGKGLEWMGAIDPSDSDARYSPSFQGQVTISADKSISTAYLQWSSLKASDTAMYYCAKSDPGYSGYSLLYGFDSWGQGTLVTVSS VL: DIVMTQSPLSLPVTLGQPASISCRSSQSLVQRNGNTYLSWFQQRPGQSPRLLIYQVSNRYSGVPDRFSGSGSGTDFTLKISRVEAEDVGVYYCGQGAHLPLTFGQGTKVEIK
0.000142 s⁻¹

Cool, now Ab10 Fab (Fab, V domains shown) VH: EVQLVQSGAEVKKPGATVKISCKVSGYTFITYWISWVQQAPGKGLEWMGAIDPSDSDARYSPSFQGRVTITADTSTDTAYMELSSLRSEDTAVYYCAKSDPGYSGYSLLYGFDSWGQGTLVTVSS VL: DIVMTQSPLSLPVTLGQPASISCRSSQSLVQRNGNTYLSWFQQRPGQPPRLLIYQVSNRYSGVPDRFSGSGSGTDFTLKISRVEAEDVGVYYCGQGAHLPLTFGQGTKVEIK
7.48e-05 s⁻¹

Cool, now Ab44 Fab (Fab, V domains shown) VH: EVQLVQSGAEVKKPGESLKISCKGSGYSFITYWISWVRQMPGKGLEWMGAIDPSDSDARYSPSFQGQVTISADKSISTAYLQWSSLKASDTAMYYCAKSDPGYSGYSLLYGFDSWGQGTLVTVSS VL: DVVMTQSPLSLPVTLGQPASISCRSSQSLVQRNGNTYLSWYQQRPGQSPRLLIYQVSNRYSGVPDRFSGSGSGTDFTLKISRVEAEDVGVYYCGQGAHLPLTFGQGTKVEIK
5.9e-05 s⁻¹

Cool, now Ab4 Fab (Fab, V domains shown) VH: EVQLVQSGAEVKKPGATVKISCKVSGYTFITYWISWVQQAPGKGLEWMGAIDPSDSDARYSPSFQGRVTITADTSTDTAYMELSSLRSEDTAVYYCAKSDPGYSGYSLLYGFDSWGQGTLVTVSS VL: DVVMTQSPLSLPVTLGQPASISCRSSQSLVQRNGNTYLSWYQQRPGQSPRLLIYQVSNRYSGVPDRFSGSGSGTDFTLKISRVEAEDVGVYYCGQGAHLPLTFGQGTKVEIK
2.99e-05 s⁻¹
